Biological target: Receptor-type tyrosine-protein kinase FLT3 (Homo sapiens); note: in the data inactive means no Kd found up to 30 µM
Sequence (P36888 whole entry): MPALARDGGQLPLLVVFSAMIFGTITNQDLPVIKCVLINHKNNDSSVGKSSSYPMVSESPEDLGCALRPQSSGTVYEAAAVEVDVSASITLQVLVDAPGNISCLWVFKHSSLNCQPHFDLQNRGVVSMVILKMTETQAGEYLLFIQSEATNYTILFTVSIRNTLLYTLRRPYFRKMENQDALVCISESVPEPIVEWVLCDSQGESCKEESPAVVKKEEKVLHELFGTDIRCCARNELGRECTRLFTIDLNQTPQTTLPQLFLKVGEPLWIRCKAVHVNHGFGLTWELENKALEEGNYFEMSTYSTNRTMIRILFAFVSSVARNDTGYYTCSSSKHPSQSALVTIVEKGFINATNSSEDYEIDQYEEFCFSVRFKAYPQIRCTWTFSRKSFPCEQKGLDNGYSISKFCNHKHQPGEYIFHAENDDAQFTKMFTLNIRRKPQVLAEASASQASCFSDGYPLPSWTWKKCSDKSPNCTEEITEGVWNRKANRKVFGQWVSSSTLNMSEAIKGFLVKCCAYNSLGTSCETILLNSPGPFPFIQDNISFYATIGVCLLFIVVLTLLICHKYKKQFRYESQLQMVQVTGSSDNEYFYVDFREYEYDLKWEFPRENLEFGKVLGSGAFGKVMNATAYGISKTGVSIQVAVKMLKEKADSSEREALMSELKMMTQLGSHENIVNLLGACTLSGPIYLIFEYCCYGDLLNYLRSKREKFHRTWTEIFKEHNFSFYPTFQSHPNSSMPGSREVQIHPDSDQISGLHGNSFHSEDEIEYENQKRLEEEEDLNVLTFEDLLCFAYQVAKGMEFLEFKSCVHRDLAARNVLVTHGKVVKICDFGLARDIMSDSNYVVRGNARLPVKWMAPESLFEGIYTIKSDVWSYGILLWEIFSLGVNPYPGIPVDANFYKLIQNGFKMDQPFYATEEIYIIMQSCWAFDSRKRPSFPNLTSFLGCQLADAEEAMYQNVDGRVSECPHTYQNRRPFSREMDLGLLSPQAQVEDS
The source made the active and inactive calls.
Mark one answer only. Choices: label 1 for active, label 0 for inactive

Past entries and their recorded results:
Task: Tell me the assay call for Cc1cc(-c2cc(OC(=O)c3ccccc3)ccc2Cl)cc2nnc(Nc3ccc(OCCN4CCCC4)cc3)nc12 please.
Result: label 0

Task: Kindly provide the recorded test outcome for the following compound: O=C(NC[C@H](O)CO)c1ccncc1Nc1ccc(I)cc1F
Result: label 0

Task: Give the logged outcome of this assay for the following compound: COc1ccc(-c2ccc3ncc4c(c3c2)n(-c2ccc(N3CCNCC3)c(C(F)(F)F)c2)c(=O)n4C)cn1 [BGT-226 FREE BASE]
Result: label 0

Further cases:
Task: Could you please tell me the result logged for COc1cc2ncnc(Nc3ccc(O)cc3)c2cc1OC in this assay?
Result: label 1

Task: What call does the record list for CNC(=O)c1cc(COc2nnc(Nc3ccc(Cl)cc3)c3ccoc23)ccn1 ?
Result: label 0

Task: Hey, what did the test say about COc1cc2ncnc3c2cc1OCCCCCN(C)Cc1ccc(Br)cc1N3 ?
Result: label 0

Task: I would be grateful if you could indicate the recorded call for C=CCN(/C=C1/C(=O)O[C@H](COC)[C@@]2(C)C1=C(O)C(=O)C1=C2[C@H](OC(C)=O)C[C@]2(C)C(=O)CC[C@@H]12)CC=C .
Result: label 0

Task: Look up the recorded call for CNC(=O)c1ccc(Nc2ncc(C(F)(F)F)c(NCc3nccnc3N(C)S(C)(=O)=O)n2)cc1 in this test.
Result: label 1

====

Target: Serine/threonine-protein kinase SIK2 (Homo sapiens, UniProt Q9H0K1); note: in the data inactive means no Kd found up to 30 µM
Sequence (Q9H0K1 whole entry): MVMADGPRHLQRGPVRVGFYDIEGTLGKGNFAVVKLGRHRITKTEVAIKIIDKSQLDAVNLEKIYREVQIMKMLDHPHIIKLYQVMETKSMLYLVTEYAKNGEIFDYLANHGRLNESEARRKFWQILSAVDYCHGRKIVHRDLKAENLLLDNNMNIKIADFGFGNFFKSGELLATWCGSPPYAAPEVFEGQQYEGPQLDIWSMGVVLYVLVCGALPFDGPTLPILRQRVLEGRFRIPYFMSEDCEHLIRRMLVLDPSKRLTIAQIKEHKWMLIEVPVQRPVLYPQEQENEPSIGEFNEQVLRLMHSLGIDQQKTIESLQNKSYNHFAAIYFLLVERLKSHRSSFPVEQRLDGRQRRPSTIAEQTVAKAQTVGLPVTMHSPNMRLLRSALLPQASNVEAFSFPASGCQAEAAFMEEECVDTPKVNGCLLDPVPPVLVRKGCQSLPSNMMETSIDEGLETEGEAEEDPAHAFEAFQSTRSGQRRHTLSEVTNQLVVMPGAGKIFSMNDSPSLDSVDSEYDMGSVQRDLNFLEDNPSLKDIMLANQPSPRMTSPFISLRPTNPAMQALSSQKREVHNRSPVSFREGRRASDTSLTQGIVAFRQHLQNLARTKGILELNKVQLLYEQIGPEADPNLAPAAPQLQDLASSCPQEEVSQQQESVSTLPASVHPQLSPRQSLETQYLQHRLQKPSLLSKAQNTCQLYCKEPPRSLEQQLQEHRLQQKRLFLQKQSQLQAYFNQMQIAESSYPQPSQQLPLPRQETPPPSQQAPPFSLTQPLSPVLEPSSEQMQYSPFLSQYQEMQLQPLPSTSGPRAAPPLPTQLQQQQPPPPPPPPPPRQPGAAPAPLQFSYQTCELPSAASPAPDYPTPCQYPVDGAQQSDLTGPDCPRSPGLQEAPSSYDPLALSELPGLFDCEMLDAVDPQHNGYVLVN
Activity calls are given as the source filed them.
The categories you may choose from are yes (1) (active), no (0) (inactive)

Task: # fetch the recorded call for O=C(NC[C@H](O)CO)c1ccncc1Nc1ccc(I)cc1F here
Result: no (0)

***
Task: Record lookup: outcome of this test for C#Cc1cccc(Nc2ncnc3cc4c(cc23)OCCOCCOCCO4)c1 ?
Result: no (0)

Task: For COc1cc2ncnc3c2cc1OCCCCCN(C)Cc1ccc(Br)cc1N3 , what call appears in the results of this test?
Result: no (0)

Task: Name the outcome recorded for c1cc(OCCN2CCCCC2)cc(-c2n[nH]c3ccc(-c4nc[nH]n4)cc23)c1 in the assay.
Result: no (0)

Task: Record lookup: outcome of this test for O=C(O)c1ccc2c(c1)nc(Nc1cccc(Cl)c1)c1ccncc12 ?
Result: no (0)

Task: // outcome(item) with item = FC(F)(F)c1ccc(CNc2ccc(Cc3c[nH]c4ncc(Cl)cc34)cn2)cn1
Result: no (0)

Task: Query: recorded result category for Cc1ccc(C(=O)Nc2ccc(Oc3cc4cnn(C)c4cc3-c3cn[nH]c3)c(F)c2)c(=O)n1-c1ccc(F)cc1 in this test
Result: no (0)

Task: Outcome logged for O=S(=O)(c1cccc2c(O)nccc12)N1CCCNCC1 [HYDROXYFASUDIL] in this assay:
Result: no (0)

Task: Entry C[C@]1(O)C[C@@H](c2nc(-c3ccc4ccc(-c5ccccc5)nc4c3)c3c(N)nccn32)C1 : call = ?
Result: no (0)

Task: Assay outcome for Cc1cc(C(=O)Nc2cc(Oc3ccc4nc(NC(=O)C5CC5)cn4n3)ccc2C)n(C)n1 : what was it?
Result: no (0)

Task: How did this test come out for C=CCN(/C=C1/C(=O)O[C@H](COC)[C@@]2(C)C1=C(O)C(=O)C1=C2[C@H](OC(C)=O)C[C@]2(C)C(=O)CC[C@@H]12)CC=C ?
Result: no (0)

Task: Fill in: this test's call for COc1cc(Nc2ncc(F)c(Nc3ccc4c(n3)N(COP(=O)(O)O)C(=O)C(C)(C)O4)n2)cc(OC)c1OC is ___
Result: no (0)
